Reference for the values: patent US8623429B2

assay: Example 5: degradation over time of black currant anthocyanosides at 37° C., pH 7.0, with/without GSH (HPLC); format: physicochemical; settings: Blank sample, pH 7.0, 37° C., 3:45 h
Catalogue of compounds with associated Peak Area

Compound: C[C@@H]1O[C@@H](OC[C@H]2O[C@@H](Oc3cc4c(O)cc(O)cc4[o+]c3-c3cc(O)c(O)c(O)c3)[C@H](O)[C@@H](O)[C@@H]2O)[C@H](O)[C@H](O)[C@H]1O [Dp-3-O-Rut, Delphinidin-3-O-rutinoside]
Peak Area: 891.1
--
Compound: C[C@@H]1O[C@@H](OC[C@H]2O[C@@H](Oc3cc4c(O)cc(O)cc4[o+]c3-c3ccc(O)c(O)c3)[C@H](O)[C@@H](O)[C@@H]2O)[C@H](O)[C@H](O)[C@H]1O [Cn-3-O-Rut, Cyanidin-3-O-rutinoside]
Peak Area: 1361.3
--
Compound: OC[C@H]1O[C@@H](Oc2cc3c(O)cc(O)cc3[o+]c2-c2cc(O)c(O)c(O)c2)[C@H](O)[C@@H](O)[C@@H]1O [Dp-3O-Glc, Delphinidin 3-o-glucoside]
Peak Area: 214.5
--
Compound: OC[C@H]1O[C@@H](Oc2cc3c(O)cc(O)cc3[o+]c2-c2ccc(O)c(O)c2)[C@H](O)[C@@H](O)[C@@H]1O [Cn-3O-Glc, Cyanidin 3-o-glucoside]
Peak Area: 181.6

====

test: Example 1: stability of bilberry extract anthocyanosides, 4 hours at 37° C., pH 7.0, with/without DHLA or GSH (HPLC); type: physicochemical; conditions: 30 mg dihydrolipoic acid, pH 7.0, 37° C., 4 hours
# if value of Peak Area, DHLA (4 hours) reaches 300, tag label 1; if it stays below, tag label 0

Molecule: Oc1cc(O)c2cc(O[C@H]3OC[C@H](O)[C@H](O)[C@H]3O)c(-c3cc(O)c(O)c(O)c3)[o+]c2c1 [Dp-3O-Ara, Delphinidin 3-o-arabinoside]
Class name: label 1
//
Molecule: OC[C@H]1O[C@@H](Oc2cc3c(O)cc(O)cc3[o+]c2-c2ccc(O)c(O)c2)[C@H](O)[C@@H](O)[C@@H]1O [Cn-3O-Glc, Cyanidin 3-o-glucoside]
Class name: label 1
//
Molecule: Oc1cc(O)c2cc(O[C@@H]3OC[C@H](O)[C@H](O)[C@H]3O)c(-c3ccc(O)c(O)c3)[o+]c2c1 [Cn-3O-Ara, Cyanidin 3-o-arabinoside]
Class name: label 0
//
Molecule: COc1cc(-c2[o+]c3cc(O)cc(O)c3cc2O[C@@H]2O[C@H](CO)[C@H](O)[C@H](O)[C@H]2O)cc(OC)c1O [Mv-3O-Gal, Malvidin 3-o-galactoside]
Class name: label 0
//
Molecule: COc1cc(-c2[o+]c3cc(O)cc(O)c3cc2O[C@@H]2O[C@H](CO)[C@@H](O)[C@H](O)[C@H]2O)cc(OC)c1O [Mv-3O-Glc, Malvidin 3-o-glucoside]
Class name: label 0
//
Molecule: COc1cc(-c2[o+]c3cc(O)cc(O)c3cc2O[C@@H]2O[C@H](CO)[C@@H](O)[C@H](O)[C@H]2O)cc(O)c1O [Pt-3O-Glc, Petunidin 3-o-glucoside]
Class name: label 0
//
Molecule: COc1cc(-c2[o+]c3cc(O)cc(O)c3cc2OC2OC(CO)C(O)C(O)C2O)cc(O)c1O (centres unmarked) [Pt-3O-Gal, Petunidin 3-o-galactoside]
Class name: label 0

====

test: Example 5: degradation over time of black currant anthocyanosides at 37° C., pH 7.0, with/without GSH (HPLC); format: physicochemical; details: Blank sample, pH 7.0, 37° C., 0:00 h
Attribute measured: Peak Area

Molecule: OC[C@H]1O[C@@H](Oc2cc3c(O)cc(O)cc3[o+]c2-c2ccc(O)c(O)c2)[C@H](O)[C@@H](O)[C@@H]1O [Cn-3O-Glc, Cyanidin 3-o-glucoside]
Attribute measured: Peak Area
Reported: 491.1

Molecule: C[C@@H]1O[C@@H](OC[C@H]2O[C@@H](Oc3cc4c(O)cc(O)cc4[o+]c3-c3cc(O)c(O)c(O)c3)[C@H](O)[C@@H](O)[C@@H]2O)[C@H](O)[C@H](O)[C@H]1O [Dp-3-O-Rut, Delphinidin-3-O-rutinoside]
Attribute measured: Peak Area
Reported: 5207.5

Molecule: OC[C@H]1O[C@@H](Oc2cc3c(O)cc(O)cc3[o+]c2-c2cc(O)c(O)c(O)c2)[C@H](O)[C@@H](O)[C@@H]1O [Dp-3O-Glc, Delphinidin 3-o-glucoside]
Attribute measured: Peak Area
Reported: 1480.7

Molecule: C[C@@H]1O[C@@H](OC[C@H]2O[C@@H](Oc3cc4c(O)cc(O)cc4[o+]c3-c3ccc(O)c(O)c3)[C@H](O)[C@@H](O)[C@@H]2O)[C@H](O)[C@H](O)[C@H]1O [Cn-3-O-Rut, Cyanidin-3-O-rutinoside]
Attribute measured: Peak Area
Reported: 3539.1

====

assay: Example 5: degradation over time of black currant anthocyanosides at 37° C., pH 7.0, with/without GSH (HPLC); format: physicochemical; conditions: GSH protected sample (20 mg), pH 7.0, 37° C., 1:15 h
Attribute measured: Peak Area

Compound: C[C@@H]1O[C@@H](OC[C@H]2O[C@@H](Oc3cc4c(O)cc(O)cc4[o+]c3-c3cc(O)c(O)c(O)c3)[C@H](O)[C@@H](O)[C@@H]2O)[C@H](O)[C@H](O)[C@H]1O [Dp-3-O-Rut, Delphinidin-3-O-rutinoside]
Reported: 4168.7
//
Compound: OC[C@H]1O[C@@H](Oc2cc3c(O)cc(O)cc3[o+]c2-c2cc(O)c(O)c(O)c2)[C@H](O)[C@@H](O)[C@@H]1O [Dp-3O-Glc, Delphinidin 3-o-glucoside]
Reported: 1178.1
//
Compound: OC[C@H]1O[C@@H](Oc2cc3c(O)cc(O)cc3[o+]c2-c2ccc(O)c(O)c2)[C@H](O)[C@@H](O)[C@@H]1O [Cn-3O-Glc, Cyanidin 3-o-glucoside]
Reported: 415.3
//
Compound: C[C@@H]1O[C@@H](OC[C@H]2O[C@@H](Oc3cc4c(O)cc(O)cc4[o+]c3-c3ccc(O)c(O)c3)[C@H](O)[C@@H](O)[C@@H]2O)[C@H](O)[C@H](O)[C@H]1O [Cn-3-O-Rut, Cyanidin-3-O-rutinoside]
Reported: 2958.5

====

experiment: Example 5: degradation over time of black currant anthocyanosides at 37° C., pH 7.0, with/without GSH (HPLC); format: physicochemical; details: Blank sample, pH 7.0, 37° C., 0:45 h
The following compounds are listed with their measured Peak Area values.
Attribute measured: Peak Area

Compound: C[C@@H]1O[C@@H](OC[C@H]2O[C@@H](Oc3cc4c(O)cc(O)cc4[o+]c3-c3cc(O)c(O)c(O)c3)[C@H](O)[C@@H](O)[C@@H]2O)[C@H](O)[C@H](O)[C@H]1O [Dp-3-O-Rut, Delphinidin-3-O-rutinoside]
Attribute measured: Peak Area
Reported: 2787.9
--
Compound: OC[C@H]1O[C@@H](Oc2cc3c(O)cc(O)cc3[o+]c2-c2ccc(O)c(O)c2)[C@H](O)[C@@H](O)[C@@H]1O [Cn-3O-Glc, Cyanidin 3-o-glucoside]
Attribute measured: Peak Area
Reported: 321.0
--
Compound: C[C@@H]1O[C@@H](OC[C@H]2O[C@@H](Oc3cc4c(O)cc(O)cc4[o+]c3-c3ccc(O)c(O)c3)[C@H](O)[C@@H](O)[C@@H]2O)[C@H](O)[C@H](O)[C@H]1O [Cn-3-O-Rut, Cyanidin-3-O-rutinoside]
Attribute measured: Peak Area
Reported: 2342.2
--
Compound: OC[C@H]1O[C@@H](Oc2cc3c(O)cc(O)cc3[o+]c2-c2cc(O)c(O)c(O)c2)[C@H](O)[C@@H](O)[C@@H]1O [Dp-3O-Glc, Delphinidin 3-o-glucoside]
Attribute measured: Peak Area
Reported: 745.2

====

assay: Example 5: degradation over time of black currant anthocyanosides at 37° C., pH 7.0, with/without GSH (HPLC); type: physicochemical; conditions: Blank, pH 7.0, 37° C., 4 hours
Items are presented alongside their recorded %-residual anthocyanosides (% left).

Compound: OC[C@H]1O[C@@H](Oc2cc3c(O)cc(O)cc3[o+]c2-c2cc(O)c(O)c(O)c2)[C@H](O)[C@@H](O)[C@@H]1O [Dp-3O-Glc, Delphinidin 3-o-glucoside]
%-residual anthocyanosides (% left): 10%

Compound: C[C@@H]1O[C@@H](OC[C@H]2O[C@@H](Oc3cc4c(O)cc(O)cc4[o+]c3-c3cc(O)c(O)c(O)c3)[C@H](O)[C@@H](O)[C@@H]2O)[C@H](O)[C@H](O)[C@H]1O [Dp-3-O-Rut, Delphinidin-3-O-rutinoside]
%-residual anthocyanosides (% left): 12%

Compound: OC[C@H]1O[C@@H](Oc2cc3c(O)cc(O)cc3[o+]c2-c2ccc(O)c(O)c2)[C@H](O)[C@@H](O)[C@@H]1O [Cn-3O-Glc, Cyanidin 3-o-glucoside]
%-residual anthocyanosides (% left): 31%

Compound: C[C@@H]1O[C@@H](OC[C@H]2O[C@@H](Oc3cc4c(O)cc(O)cc4[o+]c3-c3ccc(O)c(O)c3)[C@H](O)[C@@H](O)[C@@H]2O)[C@H](O)[C@H](O)[C@H]1O [Cn-3-O-Rut, Cyanidin-3-O-rutinoside]
%-residual anthocyanosides (% left): 33%
